# procedure.summary: Relative viability of human CD34+ hematopoietic stem and progenitors, 48 h
# Format: cell-based
# experimental.parameters: CD34, dose 0.2 mM, read-out: Relative % viable cells
measured.attribute: viability at 48 h, 0.2 mM (%)
Report only the number, with the unit % understood.

Just so you know, measured viability at 48 h, 0.2 mM for CCCCCCCCNC(=O)C(C#N)=Cc1cn(CCCN(C)C)c2ccccc12 came out at 99.5

###

# procedure.summary: Relative viability of human CD34+ hematopoietic stem and progenitors, 48 h
# Type: cell-based
# experimental.parameters: Relative % viable cells
measured.attribute: viability at 48 h, 0.04 mM (%)
Report only the number, with the unit % understood.

Just so you know, measured viability at 48 h, 0.04 mM for CCCCCCCCNC(=O)C(C#N)=Cc1cn(CCCN(C)C)c2ccccc12 came out at 99.4

Values were extracted from paper PMC7719179.
